# System: genotype 1a-H77 subgenomic replicon cell line
# experiment_notes: microbe, parasite or virus in culture
# Format: cell-based, HCV
# conditions: Hepatitis C virus, read-out: EC50 1a
pEC50: −log10 of the molar value.
value_type: pEC50

Look up pEC50: COc1c(C#Cc2ccc(NS(C)(=O)=O)cc2C(F)(F)F)cc(N2CCC(=O)NC2=O)cc1C(C)(C)C 7.00 to 8.00

Value lookup for pEC50; key = COc1c(/C=C/c2ccc(NS(C)(=O)=O)cc2)cc(-n2ccc(=O)[nH]c2=O)cc1C(C)(C)C > 8.00

Report pEC50 for COc1c(C#Cc2ccc(NS(C)(=O)=O)cc2C)cc(N2CCC(=O)NC2=O)cc1C(C)(C)C please. > 8.00

Fill in: pEC50 of COc1c(C(=O)N(C)c2ccc(NS(C)(=O)=O)cc2)cc(N2CCC(=O)NC2=O)cc1C(C)(C)C is ___ < 6.00

Field request: pEC50 | item: COc1c(-c2nc3ccc(NS(C)(=O)=O)cc3o2)cc(N2CCC(=O)NC2=O)cc1C(C)(C)C < 6.00

Please look up its pEC50: COc1c(C(=O)Nc2cc(CNS(C)(=O)=O)cs2)cc(N2CCC(=O)NC2=O)cc1C(C)(C)C < 6.00

# lookup: pEC50 of CC(C)(C)c1cc(-n2ccc(=O)[nH]c2=O)cc(C(=O)Nc2ccc(NS(C)(=O)=O)cc2)c1O 6.00 to 7.00

Dear colleague, I am looking for the recorded pEC50 of the following molecule: COc1c(-c2ccoc2)cc(-n2ccc(=O)[nH]c2=O)cc1-c1ccc2c(c1)CC=C2CNS(C)(=O)=O 6.00 to 7.00

Requested read-out: pEC50. Entry: COc1c(-c2cccc(/C(C)=N/NS(C)(=O)=O)c2)cc(-n2ccc(=O)[nH]c2=O)cc1C(C)(C)C < 6.00

I would be grateful if you could share the reported pEC50 for COc1c(C=C(F)c2ccc(NS(C)(=O)=O)cc2)cc(N2CCC(=O)NC2=O)cc1C(C)(C)C (racemic) . > 8.00

Name the recorded pEC50 for COc1c(/C=C/c2ccccc2)cc(N2CCC(=O)NC2=O)cc1C(C)(C)C . 6.00 to 7.00

What does the record list as pEC50 for COc1c(-c2cccc(/C(C)=N\NS(C)(=O)=O)c2)cc(N2CCC(=O)NC2=O)cc1C(C)(C)C ? < 6.00

Request the reported pEC50 associated with COc1c(-c2ccc3c(c2)CCC3(C)CNS(C)(=O)=O)cc(-n2ccc(=O)[nH]c2=O)cc1C(C)(C)C (centres unmarked) 6.00 to 7.00

Given COc1c(C#Cc2cc(F)c(NS(C)(=O)=O)cc2C(F)(F)F)cc(N2CCC(=O)NC2=O)cc1C(C)(C)C , state its recorded pEC50. 6.00 to 7.00

Look up pEC50: COc1c(-c2ccc3c(c2)CCC3=O)cc(-n2ccc(=O)[nH]c2=O)cc1C(C)(C)C 6.00 to 7.00

Which value of pEC50 has been reported for COc1c(C#Cc2ccc(NS(C)(=O)=O)cc2O)cc(-n2ccc(=O)[nH]c2=O)cc1C(C)(C)C in the records? 7.00 to 8.00

Requested field: pEC50. Item: COc1c(-c2ccc3c(CNS(C)(=O)=O)noc3c2)cc(-n2ccc(=O)[nH]c2=O)cc1C(C)(C)C < 6.00

Would you mind telling me what pEC50 value was observed for CC(C)(C)c1cc(N2CCC(=O)NC2=O)cc(C(=O)Nc2ccc(NS(=O)(=O)CC(F)(F)F)cc2)c1O ? < 6.00

Report pEC50 for COc1c(-c2ccc3cc(NS(C)(=O)=O)ccc3c2)cc(-n2ccc(=O)[nH]c2=O)cc1-c1ccco1 please. 6.00 to 7.00

Quick one: pEC50 for COc1c(-c2nc3ccccc3s2)cc(N2CCC(=O)NC2=O)cc1C(C)(C)C ? 6.00 to 7.00

Param item = COC(=O)c1cc(NS(C)(=O)=O)ccc1CCc1cc(-n2ccc(=O)[nH]c2=O)cc(C(C)(C)C)c1OC ; retrieve measured pEC50. 7.00 to 8.00

I have this molecule here, COc1c(-c2cccc(/C=N/NS(C)(=O)=O)c2)cc(-n2ccc(=O)[nH]c2=O)cc1C(C)(C)C , and I need its recorded pEC50. < 6.00

Need pEC50 of CC(C)(C)c1cc(N2CCC(=O)NC2=O)cc(C(=O)Nc2ccc(NS(=O)(=O)c3ccccc3)cc2)c1O , thanks. 6.00 to 7.00

Can you look up the measured pEC50 of COc1c(CC(=O)c2ccc(NS(C)(=O)=O)cc2)cc(N2CCC(=O)NC2=O)cc1C(C)(C)C for me? 6.00 to 7.00

# lookup: pEC50 of COc1c(C#Cc2ccc(NS(C)(=O)=O)cc2C(=O)N2CCOCC2)cc(-n2ccc(=O)[nH]c2=O)cc1C(C)(C)C 6.00 to 7.00

What pEC50 value was documented for this molecule, COc1c(NS(C)(=O)=O)cc(-n2ccc(=O)[nH]c2=O)cc1-c1ccc2cc(NS(C)(=O)=O)ccc2c1 ? < 6.00

What value of pEC50 has been reported for the following molecule? COc1c(/C=C(\C)c2ccc(NS(C)(=O)=O)cc2)cc(N2CCC(=O)NC2=O)cc1C(C)(C)C 7.00 to 8.00

Quick check: pEC50 of CC(C)(C)c1cc(N2CCC(=O)NC2=O)cc(C(=O)Nc2cccc(NS(C)(=O)=O)c2)c1O ? < 6.00

Field request: pEC50 | item: COc1c(/C=C/c2ccc(NS(C)(=O)=O)cc2C(=O)N(C)C)cc(-n2ccc(=O)[nH]c2=O)cc1C(C)(C)C 7.00 to 8.00

Data provenance: patent US8415351B2
